target.or.system: NACHT, LRR and PYD domains-containing protein 3 (Mus musculus, UniProt Q8R4B8)
Sequence (Q8R4B8 whole entry, the tested form may be a part): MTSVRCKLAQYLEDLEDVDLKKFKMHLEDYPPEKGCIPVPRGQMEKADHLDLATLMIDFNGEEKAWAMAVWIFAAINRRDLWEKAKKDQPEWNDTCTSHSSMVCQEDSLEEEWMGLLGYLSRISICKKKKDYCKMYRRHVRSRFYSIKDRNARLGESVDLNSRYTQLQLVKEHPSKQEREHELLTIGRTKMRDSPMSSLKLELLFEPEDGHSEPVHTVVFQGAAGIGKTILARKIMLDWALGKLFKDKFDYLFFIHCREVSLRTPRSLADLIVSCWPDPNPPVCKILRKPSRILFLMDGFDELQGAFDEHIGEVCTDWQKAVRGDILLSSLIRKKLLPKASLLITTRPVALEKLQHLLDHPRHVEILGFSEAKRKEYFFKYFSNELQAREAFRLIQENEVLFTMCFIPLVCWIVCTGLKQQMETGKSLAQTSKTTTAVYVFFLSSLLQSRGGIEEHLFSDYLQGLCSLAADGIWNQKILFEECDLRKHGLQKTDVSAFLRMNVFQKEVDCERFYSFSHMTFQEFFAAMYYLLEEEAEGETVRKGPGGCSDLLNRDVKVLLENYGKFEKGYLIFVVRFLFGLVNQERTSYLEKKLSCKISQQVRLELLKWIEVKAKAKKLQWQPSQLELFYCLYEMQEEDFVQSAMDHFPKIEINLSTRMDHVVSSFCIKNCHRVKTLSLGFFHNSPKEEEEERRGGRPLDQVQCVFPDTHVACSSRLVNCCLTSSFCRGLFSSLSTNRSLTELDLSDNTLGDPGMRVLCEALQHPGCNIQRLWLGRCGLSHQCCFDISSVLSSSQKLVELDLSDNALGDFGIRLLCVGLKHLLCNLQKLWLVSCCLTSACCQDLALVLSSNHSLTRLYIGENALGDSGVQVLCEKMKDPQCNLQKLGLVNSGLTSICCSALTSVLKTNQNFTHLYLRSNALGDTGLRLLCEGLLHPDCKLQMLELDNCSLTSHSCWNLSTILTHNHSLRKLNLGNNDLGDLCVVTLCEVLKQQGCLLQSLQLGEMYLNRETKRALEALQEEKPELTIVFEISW
measurement.protocol: Inhibition of NLRP3 inflammasome in mouse J774.A1 cells assessed as reduction in LPS-induced IL-1beta release
measured.endpoint: pIC50
In plain terms, pIC50 is the concentration in mol/L turned into minus its base-10 logarithm.

Use the examples below as a reference point.
CC1=C2CC[C@@](C)(O)[C@@H]2[C@H]2OC(=O)[C@@H](CN(C)CCCOc3no[n+]([O-])c3S(=O)(=O)c3ccccc3)[C@@H]2CC1; 6.31
O=S(=O)(c1ccccc1)c1no[n+]([O-])c1S(=O)(=O)c1ccccc1; 6.03

Prompt: Dear colleague, I am looking for the recorded pIC50 of the following compound: `C=C1C(=O)O[C@@H]2[C@H]3O[C@@]3(C)CC/C=C(\C)CC[C@@H]12`
Response: 5.85

Prompt: Now the compound C=C1C(=O)O[C@H]2[C@H]1CCC(C)=C1CC[C@@](C)(O)[C@@H]12 [MICHELIOLIDE]
Response: 5.64
